System Name: human plasma kallikrein (human, UniProt P03952 20-390; P03952 391-638)
Sequence (P03952 20-390, chain 1 of 2): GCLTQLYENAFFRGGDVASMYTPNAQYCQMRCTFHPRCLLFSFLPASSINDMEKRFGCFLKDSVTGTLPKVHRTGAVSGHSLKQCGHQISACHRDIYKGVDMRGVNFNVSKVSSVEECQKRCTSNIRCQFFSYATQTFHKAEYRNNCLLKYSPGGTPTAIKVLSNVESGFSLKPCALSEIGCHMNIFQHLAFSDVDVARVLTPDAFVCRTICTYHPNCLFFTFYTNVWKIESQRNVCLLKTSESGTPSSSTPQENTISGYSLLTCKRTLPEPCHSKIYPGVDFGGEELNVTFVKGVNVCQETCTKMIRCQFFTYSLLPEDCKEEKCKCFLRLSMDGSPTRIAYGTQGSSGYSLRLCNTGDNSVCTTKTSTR
Sequence (P03952 391-638, chain 2 of 2): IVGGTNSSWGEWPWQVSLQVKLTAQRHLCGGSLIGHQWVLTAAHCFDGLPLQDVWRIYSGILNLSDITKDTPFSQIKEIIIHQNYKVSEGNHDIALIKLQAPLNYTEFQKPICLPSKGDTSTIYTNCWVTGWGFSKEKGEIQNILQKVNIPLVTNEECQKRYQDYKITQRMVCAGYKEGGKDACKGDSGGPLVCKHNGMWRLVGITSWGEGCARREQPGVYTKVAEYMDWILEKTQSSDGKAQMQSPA
Protocol: cell-based or functional assay
Readout Type: % inhibition at 10 nM
The reply must contain the numeric value and, after it, the unit.

Binder	Readout Type	Measurement
M197-E12 (Fab, V domains shown) VH: EVQLLESGGGLVQPGGSLRLSCAASGFTFSTYTMRWVRQAPGKGLEWVSSIYPSGGKTQYADSVKGRFTISRDNSKNTLYLQMNSLRAEDTAVYYCAYRRTGIPRRDAFDIWGQGTMVTVSS VL: DIQMTQSPSTLSASVGDRVTITCRASQSISSWLAWYQQKPGKAPNLLIYKASTLESGVPSRFSGSGSGTEFTLTISSLQPDDFATYYCQQYNTYWTFGQGTKVEIK	% inhibition at 10 nM	93%
M197-F01 (Fab, V domains shown) VH: EVQLLESGGGLVQPGGSLRLSCAASGFTFSIYHMYWVRQAPGKGLEWVSSIGPSGGPTGYADSVKGRFTISRDNSKNTLYLQMNSLRAEDTAVYYCAYRRTGIPRRDAFDIWGQGTMVTVSS VL: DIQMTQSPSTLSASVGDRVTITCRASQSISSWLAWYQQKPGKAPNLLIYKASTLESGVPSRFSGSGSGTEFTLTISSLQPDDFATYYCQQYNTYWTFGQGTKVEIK	% inhibition at 10 nM	92.6%
M202-A10 (Fab, V domains shown) VH: EVQLLESGGGLVQPGGSLRLSCAASGFTFSHYIMMWVRQAPGKGLEWVSGIYSSGGITVYADSVKGRFTISRDNSKNTLYLQMNSLRAEDTAVYYCAFRRTGIPRRDSFDIWGQGTMVTVSS VL: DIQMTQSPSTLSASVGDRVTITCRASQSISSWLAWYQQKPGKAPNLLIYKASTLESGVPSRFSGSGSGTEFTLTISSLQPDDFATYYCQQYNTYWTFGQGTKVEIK	% inhibition at 10 nM	36.3%

Entry M198-E11 (Fab, V domains shown) VH: EVQLLESGGGLVQPGGSLRLSCAASGFTFSTYSMYWVRQAPGKGLEWVSSIYPSGGLTWYADSVKGRFTISRDNSKNTLYLQMNSLRAEDTAVYYCAYRRTGIPRRDAFDIWGQGTMVTVSS VL: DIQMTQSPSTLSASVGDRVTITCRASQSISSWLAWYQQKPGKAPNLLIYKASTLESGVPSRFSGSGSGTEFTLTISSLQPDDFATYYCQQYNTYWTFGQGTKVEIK has what % inhibition at 10 nM?
92.5%

Entry M202-B03 (Fab, V domains shown, Tested as Fab; printed HC runs into CH1) VH: EVQLLESGGGLVQPGGSLRLSCAASGFTFSHYIMMWVRQAPGKGLEWVSGIYSSGGITVYADSVKGRFTISRDNSKNTLYLQMNSLRAEDTAVYYCAYRRTGVPRRDDFDIWGQGTMVTVSS VL: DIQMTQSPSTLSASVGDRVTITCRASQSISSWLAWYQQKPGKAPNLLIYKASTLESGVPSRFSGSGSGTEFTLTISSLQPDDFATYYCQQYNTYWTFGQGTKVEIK has what % inhibition at 10 nM?
93.1%
